Entries and their self-cleavage
B1: CPEB3 Ribozyme (parent)
chain: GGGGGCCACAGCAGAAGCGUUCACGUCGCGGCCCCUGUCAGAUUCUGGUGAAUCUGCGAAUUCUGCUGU

variants of: B1; assay: self-cleavage, relative activity (ratio to wild type); higher = more cleavage; co-transcriptional
The reply should be a number, written without any unit.

Consider the reported self-cleavage for these variants:
>  <Change>
G48C U64C

>  <Measurement type>
self-cleavage

>  <Result value>
0.938

$$$$
>  <Change>
A42U C57U

>  <Measurement type>
self-cleavage

>  <Result value>
0.436

$$$$
>  <Change>
A8G A40G

>  <Measurement type>
self-cleavage

>  <Result value>
0.723

$$$$
>  <Change>
G4C U64A

>  <Measurement type>
self-cleavage

>  <Result value>
0.457

$$$$
>  <Change>
C24U C34U

>  <Measurement type>
self-cleavage

>  <Result value>
0.858

$$$$
>  <Change>
A15U C18A

>  <Measurement type>
self-cleavage

>  <Result value>
0.122

$$$$
>  <Change>
C24A U61C

>  <Measurement type>
self-cleavage

>  <Result value>
0.374

$$$$
>  <Change>
C33G U55G

>  <Measurement type>
self-cleavage

>  <Result value>
0.38

$$$$

# self-cleavage lookup, item U46G U62A 0.948

Could you do the same for U46A G48A , please? 1.01

Now this one: G41U U43A 0.3
